Let's look at some compounds and their measured KIDNEY_TOTAL.
species on record: Rattus norvegicus; assay: Open TG-GATES - Regimen: Single; assay type: toxicity, organism-based, Sprague-Dawley; design: regimen Single, gender Male, age 6 weeks; details: in vivo, po, 100 mg/kg, 9 h, tissue Kidney, route gavage, dose level Low

>  <compound>
NC(N)=Nc1nc(CSCCC(N)=NS(N)(=O)=O)cs1

>  <unitsSymbol>
g

>  <KIDNEY_TOTAL>
1.9

$$$$
>  <compound>
CCOC(=O)CCC(=O)O[C@H]1[C@H](O[C@@H]2[C@@H](C)[C@H](O[C@H]3C[C@@](C)(OC)[C@@H](O)[C@H](C)O3)[C@@H](C)C(=O)O[C@H](CC)[C@@](C)(O)[C@H](O)[C@@H](C)C(=O)[C@H](C)C[C@@]2(C)O)O[C@H](C)C[C@@H]1N(C)C [ERYTHROMYCIN ETHYLSUCCINATE]

>  <unitsSymbol>
g

>  <KIDNEY_TOTAL>
2.1

$$$$
>  <compound>
COc1ccc2[nH]c([S+]([O-])Cc3ncc(C)c(OC)c3C)nc2c1 (centres undefined)

>  <unitsSymbol>
g

>  <KIDNEY_TOTAL>
2.1

$$$$
>  <compound>
COC1=CC(=O)C[C@@H](C)[C@]12Oc1c(Cl)c(OC)cc(OC)c1C2=O

>  <unitsSymbol>
g

>  <KIDNEY_TOTAL>
1.9

$$$$

* * *

Let's look at some compounds and their measured Ret.
organism: Rattus norvegicus; test: Open TG-GATES - Regimen: Daily Repeat; format: toxicity, organism-based, Sprague-Dawley; parameters: regimen Daily Repeat, gender Male, age 6 weeks; conditions: in vivo, po, 300 mg/kg, 72 h, tissue Blood, route gavage, dose level Middle, time 3 day

>  <compound>
CCOc1ccc(NC(=O)CC(C)O)cc1 (stereo not given) [BUCETIN]

>  <Ret [%]>
6.8

$$$$
>  <compound>
COC1=CC(=O)C[C@@H](C)[C@]12Oc1c(Cl)c(OC)cc(OC)c1C2=O [GRISEOFULVIN]

>  <Ret [%]>
6.7

$$$$
>  <compound>
NC(N)=Nc1nc(CSCCC(N)=NS(N)(=O)=O)cs1 [FAMOTIDINE]

>  <Ret [%]>
5.1

$$$$
>  <compound>
COc1ccc2[nH]c([S+]([O-])Cc3ncc(C)c(OC)c3C)nc2c1 (stereo not given) [OMEPRAZOLE]

>  <Ret [%]>
4.2

$$$$
>  <compound>
CCOC(=O)CCC(=O)O[C@H]1[C@H](O[C@@H]2[C@@H](C)[C@H](O[C@H]3C[C@@](C)(OC)[C@@H](O)[C@H](C)O3)[C@@H](C)C(=O)O[C@H](CC)[C@@](C)(O)[C@H](O)[C@@H](C)C(=O)[C@H](C)C[C@@]2(C)O)O[C@H](C)C[C@@H]1N(C)C [ERYTHROMYCIN ETHYLSUCCINATE]

>  <Ret [%]>
5.1

$$$$

* * *

species on record: Rattus norvegicus; assay: Open TG-GATES - Regimen: Daily Repeat; format: toxicity, organism-based, Sprague-Dawley; parameters: regimen Daily Repeat, gender Male, age 6 weeks; details: in vivo, po, 0 mg/kg, […], tissue Plasma, route gavage, dose level Control, time 28 day
valueType: PL (mg/dL)

>  <compound>
CN(C)CCN(Cc1cccs1)c1ccccn1

>  <valueType>
PL

>  <reportedValue>
131.8

$$$$
>  <compound>
CCOc1ccc(NC(=O)CC(C)O)cc1 (configuration not stated) [BUCETIN]

>  <valueType>
PL

>  <reportedValue>
146.2

$$$$
>  <compound>
CCOC(=O)CCC(=O)O[C@H]1[C@H](O[C@@H]2[C@@H](C)[C@H](O[C@H]3C[C@@](C)(OC)[C@@H](O)[C@H](C)O3)[C@@H](C)C(=O)O[C@H](CC)[C@@](C)(O)[C@H](O)[C@@H](C)C(=O)[C@H](C)C[C@@]2(C)O)O[C@H](C)C[C@@H]1N(C)C [ERYTHROMYCIN ETHYLSUCCINATE]

>  <valueType>
PL

>  <reportedValue>
135.8

$$$$
>  <compound>
CC1=C(/C=C/C(C)=C/C=C/C(C)=C/CO)C(C)(C)CCC1 [RETINOL]

>  <valueType>
PL

>  <reportedValue>
147

$$$$
>  <compound>
NC(N)=Nc1nc(CSCCC(N)=NS(N)(=O)=O)cs1 [FAMOTIDINE]

>  <valueType>
PL

>  <reportedValue>
141.8

$$$$
>  <compound>
COc1ccc2[nH]c([S+]([O-])Cc3ncc(C)c(OC)c3C)nc2c1 (configuration not stated) [OMEPRAZOLE]

>  <valueType>
PL

>  <reportedValue>
137.8

$$$$
>  <compound>
CCCNC(=O)NS(=O)(=O)c1ccc(Cl)cc1 [CHLORPROPAMIDE]

>  <valueType>
PL

>  <reportedValue>
137.6

$$$$
>  <compound>
O=C(CCCN1CCC(O)(c2ccc(Cl)cc2)CC1)c1ccc(F)cc1 [HALOPERIDOL]

>  <valueType>
PL

>  <reportedValue>
160.8

$$$$
>  <compound>
COC1=CC(=O)C[C@@H](C)[C@]12Oc1c(Cl)c(OC)cc(OC)c1C2=O [GRISEOFULVIN]

>  <valueType>
PL

>  <reportedValue>
132.8

$$$$
>  <compound>
NNC(=O)c1ccncc1 [ISONIAZID]

>  <valueType>
PL

>  <reportedValue>
141.8

$$$$
>  <compound>
CN1C(=O)CN=C(c2ccccc2)c2cc(Cl)ccc21 [DIAZEPAM]

>  <valueType>
PL

>  <reportedValue>
147.8

$$$$
>  <compound>
CC(C)OC(=O)C(C)(C)Oc1ccc(C(=O)c2ccc(Cl)cc2)cc1 [FENOFIBRATE]

>  <valueType>
PL

>  <reportedValue>
142

$$$$

* * *

Let's look at some compounds and their measured BUN.
organism: Rattus norvegicus; assay: Open TG-GATES - Regimen: Single; type: toxicity, organism-based, Sprague-Dawley; set-up: regimen Single, gender Male, age 6 weeks; settings: in vivo, po, 100 mg/kg, 6 h, tissue Plasma, route gavage, dose level High

>  <querySmiles>
CN(C)CCN(Cc1cccs1)c1ccccn1

>  <BUN [mg/dL]>
14.6

$$$$
>  <querySmiles>
CN(C)CCCN1c2ccccc2CCc2ccccc21

>  <BUN [mg/dL]>
6.4

$$$$
>  <querySmiles>
CN(C)CCCN1c2ccccc2CCc2ccc(Cl)cc21

>  <BUN [mg/dL]>
6.8

$$$$
>  <querySmiles>
CC1=C(/C=C/C(C)=C/C=C/C(C)=C/CO)C(C)(C)CCC1

>  <BUN [mg/dL]>
10.6

$$$$

* * *

organism: Rattus norvegicus; experiment: Open TG-GATES - Regimen: Single; format: toxicity, organism-based, Sprague-Dawley; parameters: regimen Single, gender Male, age 6 weeks; settings: in vivo, po, 10 mg/kg, 6 h, tissue Blood, route gavage, dose level Low

>  <compound>
CC(C)OC(=O)C(C)(C)Oc1ccc(C(=O)c2ccc(Cl)cc2)cc1 [FENOFIBRATE]

>  <unitsSymbol>
x10_4/ul

>  <RBC>
572.6

$$$$
>  <compound>
CN(C)CCCN1c2ccccc2CCc2ccccc21 [IMIPRAMINE]

>  <unitsSymbol>
x10_4/ul

>  <RBC>
645.6

$$$$
>  <compound>
CN(C)CCN(Cc1cccs1)c1ccccn1

>  <unitsSymbol>
x10_4/ul

>  <RBC>
597.6

$$$$
>  <compound>
CC1=C(/C=C/C(C)=C/C=C/C(C)=C/CO)C(C)(C)CCC1 [RETINOL]

>  <unitsSymbol>
x10_4/ul

>  <RBC>
632.2

$$$$

* * *

species on record: Rattus norvegicus; test: Open TG-GATES - Regimen: Daily Repeat; format: toxicity, organism-based, Sprague-Dawley; set-up: regimen Daily Repeat, gender Male, age 6 weeks; conditions: in vivo, po, 1000 mg/kg, […], tissue Plasma, route gavage, dose level High, time 14 day
valueType: ALT (IU/L)

>  <compound>
CCOc1ccc(NC(=O)CC(C)O)cc1 (stereo not given)

>  <reportedValue>
42.6

$$$$
>  <compound>
CCOC(=O)CCC(=O)O[C@H]1[C@H](O[C@@H]2[C@@H](C)[C@H](O[C@H]3C[C@@](C)(OC)[C@@H](O)[C@H](C)O3)[C@@H](C)C(=O)O[C@H](CC)[C@@](C)(O)[C@H](O)[C@@H](C)C(=O)[C@H](C)C[C@@]2(C)O)O[C@H](C)C[C@@H]1N(C)C [ERYTHROMYCIN ETHYLSUCCINATE]

>  <reportedValue>
36

$$$$
>  <compound>
CC(C)OC(=O)C(C)(C)Oc1ccc(C(=O)c2ccc(Cl)cc2)cc1 [FENOFIBRATE]

>  <reportedValue>
70

$$$$
>  <compound>
COC1=CC(=O)C[C@@H](C)[C@]12Oc1c(Cl)c(OC)cc(OC)c1C2=O

>  <reportedValue>
32

$$$$
>  <compound>
NC(N)=Nc1nc(CSCCC(N)=NS(N)(=O)=O)cs1

>  <reportedValue>
36.6

$$$$
